# experimental system: Rap guanine nucleotide exchange factor 3 (Homo sapiens) (UniProt O95398)
# protocol: Counterscreen qHTS for agonist of cAMP-regulated guanine nucleotide exchange factor 3 (EPAC1) (AID 1645889); note: % of control where 0% means no effect; nearly all actives have a fitted effect of over 40% in size
# conditions: EPAC1 Rap1B-BODIPY-GDP exchange, fluorescence; series mostly up to 154 µM
Records with an inconclusive call do not appear. Activity calls are given as the source filed them. Calls come from the whole dose curve; as a rule, active = well fitted activation curve with a large enough effect; inconclusive = small, poorly fitted or top-dose-only effect, or another doubt; inactive = no such curve, though single readings can be large or run the other way.
measured metric: activation

Some compounds with recorded activation:
compound	activation
CCOc1ccc(C(C(=O)NC2CCCC2)N(C(=O)c2snc(C(N)=O)c2N)C2CCCC2)cc1 (stereo not given)	inactive
Cn1cc(C(=O)N/N=C/C2=C(N3CCOCC3)C(=C\c3ccccc3)/CC2)ccc1=O	5.8% [at 30.8 µM] (inactive)
COC(=O)c1cc2sc(Cl)cc2n1Cc1c(C)cc(C)cc1C	inactive
C[n+]1cc(C(=O)N2CCCCC2)ccc1/C=C/c1c[nH]c2ccccc12	14.5% [at 30.8 µM] (inactive)

## Task Given the entry CN(C)c1ccc(C(O)c2cc3ccccc3s2)cc1 (stereo not given) , report its measured activation.
## Result inactive

====

# experimental system: Rap guanine nucleotide exchange factor 4 (Homo sapiens)
# protocol: Confirmatory qHTS for antagonist of cAMP-regulated guanine nucleotide exchange factor 4 (EPAC2) (AID 1645885); note: nearly all actives have a fitted effect of over 25% in size
# conditions: EPAC2 Rap1B-BODIPY-GDP exchange fluorescence, biochemical; series mostly up to 12.7 µM
Inconclusive results are not listed. The source made the active and inactive calls. Calls follow the shape of the dose curve; as a rule, active = well fitted inhibition curve with a large enough effect; inconclusive = small, poorly fitted or top-dose-only effect; inactive = no such curve, though single readings can be large or run the other way.
Allowed answers: active, inactive

A selection of reference data follows.
1. CN1/C(=C\C=C2/SC(=S)NC2=O)C(C)(C)c2ccccc21 active
2. CSc1nc(N2CCOCC2)c2c3c(sc2n1)CCC3 inactive
3. NC(=O)C1CCN(C(=O)Nc2csc3ccccc23)CC1 active
4. CCCCn1c(N)c(N(CCOC)C(=O)c2ccc(C)c(S(=O)(=O)N3CCCCC3)c2)c(=O)[nH]c1=O inactive
5. O=C(Nc1ccccc1C(F)(F)F)N1CCC(CN2CCc3ccccc3C2)CC1 inactive

Please examine the following record next.
## Task So what was the verdict on COc1ccc2cc(-c3cn4c(n3)sc3cc(F)ccc34)c(=O)oc2c1 in this test?
## Result inactive

====

# System: N140
# protocol: qHTS profiling for inhibitors of Plasmodium falciparum proliferation (AID 504749); note: nearly all actives have a fitted effect of over 60% in size
# conditions: P. falciparum in erythrocytes, SYBR Green DNA, 72 h; series mostly up to 12.8 µM
Records with an inconclusive call do not appear. Activity calls are given as the source filed them. Calls follow the shape of the dose curve; as a rule, active = well fitted inhibition curve with a large enough effect; inconclusive = small, poorly fitted or top-dose-only effect; inactive = flat fitted curve, though single readings scatter.
Pick from active, inactive when you respond.

Here's what some known entries look like.
compound	assigned class
Cc1ncc([N+](=O)[O-])n1C[C@H](O)CCl	inactive
CCOC(=O)Oc1c(OC)cc(C(=O)O[C@H]2C[C@H]3CN4CCc5c([nH]c6cc(OC)ccc56)[C@@H]4C[C@H]3[C@@H](C(=O)OC)[C@@H]2OC)cc1OC	active
CO[C@]1(NC(=O)[C@H](C(=O)O)c2ccc(O)cc2)C(=O)N2C(C(=O)O)=C(CSc3nnnn3C)CO[C@H]21	inactive
CC(C)C1CCC(C(=O)NC(Cc2ccccc2)C(=O)O)CC1 (configuration not stated)	inactive
Clc1ccc(CC[C@H](Cn2ccnc2)Sc2c(Cl)cccc2Cl)cc1	active
Cc1ccc(S(=O)(=O)NC(=O)NN2C[C@H]3CCC[C@@H]3C2)cc1	inactive

## Task Which outcome was entered for the compound NS(=O)(=O)c1cc2c(cc1Cl)N[C@@H](CC1CCCC1)NS2(=O)=O in this test?
## Result inactive

## Task Field: outcome | Entry: NS(=O)(=O)c1cc2c(cc1C(F)(F)F)N[C@H](Cc1ccccc1)NS2(=O)=O
## Result inactive

## Task Hi, sorry to bother you, what did the test record for CC(=O)[C@@]1(O)CC[C@H]2[C@H]3C[C@@H](C)C4=CC(=O)C=C[C@]4(C)[C@@]3(F)[C@@H](O)C[C@]21C ?
## Result inactive

## Task Could you check what this test reported for CC=C(/C(=C/C)c1ccc(O)cc1)c1ccc(O)cc1 ?
## Result inactive

## Task Would you mind telling me which call this test gave CN(C/C=C\c1ccccc1)Cc1cccc2ccccc12 ?
## Result inactive

## Task Tell me the recorded outcome of this test for CC(C)(C)NC[C@H](O)COc1cccc2c1CCC(=O)N2 .
## Result inactive

## Task Check the results log: what was the call for NCc1ccccc1CC(=O)N[C@@H]1C(=O)N2C(C(=O)O)=C(CSc3nnnn3CC(=O)O)CS[C@@H]12 ?
## Result inactive

## Task Dear all, I need the recorded test outcome for CC(C)=CCC[C@](C)(O)C1CC=C(C)CC1 (some centres not stated) , thank you.
## Result inactive

## Task Returns: the outcome recorded for O=C(NC[C@@H](O)CO)c1c(I)c(C(=O)NC[C@@H](O)CO)c(I)c(N(CCO)C(=O)CO)c1I in this assay.
## Result inactive

## Task Record request — test call for CO[C@@H]1C[C@H](O[C@H]2[C@@H](C)[C@H](O[C@@H]3O[C@@H](C)C[C@@H](N(C)C)[C@@H]3OC(C)=O)[C@H](C)C[C@]3(CO3)C(=O)[C@H](C)[C@H](OC(C)=O)[C@H](C)[C@H](C)OC(=O)[C@@H]2C)O[C@H](C)[C@@H]1OC(C)=O
## Result inactive

## Task Call for entry NC[C@@H]1O[C@H](O[C@H]2[C@H](O)[C@H](O[C@@H]3O[C@H](CO)[C@@H](O)[C@H](N)[C@@H]3O)[C@@H](N)C[C@H]2N)[C@@H](O)[C@H](O)[C@@H]1O :
## Result inactive
